# tgt: menin and MLL (menin, Flag tagged; biotinylated MLL1 peptide 1-46aa) (Homo sapiens, UniProt O00255)
# Sequence (O00255 whole entry): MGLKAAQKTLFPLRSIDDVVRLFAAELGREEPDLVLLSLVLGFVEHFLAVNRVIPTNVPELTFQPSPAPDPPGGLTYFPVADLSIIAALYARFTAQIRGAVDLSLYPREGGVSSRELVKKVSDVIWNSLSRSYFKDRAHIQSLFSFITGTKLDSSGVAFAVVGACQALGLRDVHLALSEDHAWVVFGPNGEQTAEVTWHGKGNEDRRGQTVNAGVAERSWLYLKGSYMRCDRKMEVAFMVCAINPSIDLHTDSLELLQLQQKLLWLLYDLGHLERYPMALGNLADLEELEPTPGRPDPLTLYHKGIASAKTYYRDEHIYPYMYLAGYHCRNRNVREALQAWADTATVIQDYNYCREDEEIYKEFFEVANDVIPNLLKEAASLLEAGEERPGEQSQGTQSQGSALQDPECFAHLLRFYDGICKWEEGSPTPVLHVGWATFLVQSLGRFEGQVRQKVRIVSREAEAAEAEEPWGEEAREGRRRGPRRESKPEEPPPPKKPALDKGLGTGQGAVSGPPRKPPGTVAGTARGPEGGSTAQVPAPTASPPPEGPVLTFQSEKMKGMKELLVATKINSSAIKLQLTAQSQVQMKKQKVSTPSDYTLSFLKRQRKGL
# assayOverview: biochemical
# conditionContext: IC50, binding inhibitory activity between menin and MLL, AlphaLISA; 1 nM menin, 10 nM biotinylated MLL1 peptide
Where a name gives a salt, the structure may show the parent alone.
quantity: IC50 (nM)
Give the value, in units of nM, as a plain number.

# input Item COc1nc(N(C)[C@H]2C[C@@H](NCc3ccc(-c4cnc(CO)c(OC)c4)cc3)C[C@H]2O)c2cc(CC(F)(F)F)sc2n1 [Example 112, hydrochloride] : provide IC50
# output 0.8

# input Item COc1cc(-c2ccc(CN[C@H]3C[C@@H](O)[C@@H](N(C)c4ncnc5sc(CC(F)(F)F)cc45)C3)c(C)c2)cnc1OC [Example 78, hydrochloride] : provide IC50
# output 8.5

# input Item COc1cc(-c2ccc(CN[C@H]3C[C@@H](O)[C@@H](N(C)c4ncncc4Oc4ccc(F)cc4-c4ccnn4C(C)C)C3)cc2)nnc1OC [Example 102, hydrochloride] : provide IC50
# output 2.7

# input Item COc1nc(N(C)[C@H]2C[C@@H](NCc3ccc(-c4cnc(F)c(OC)c4)cc3)C[C@H]2O)c2cc(CC(F)(F)F)sc2n1 [Example 91, hydrochloride] : provide IC50
# output 1.3

# input Item CN(c1ncnc2sc(CC(F)(F)F)cc12)[C@H]1C[C@@H](NCc2ccc(-c3cncc4ccccc34)cc2)C[C@H]1O [Example 83, hydrochloride] : provide IC50
# output 4.9

# input Item C=CC(=O)N(C)c1nnc(-c2ccc(CN[C@H]3C[C@@H](O)[C@@H](N(C)c4nc(OC)nc5sc(CC(F)(F)F)cc45)C3)cc2)cc1OC [Example 113, hydrochloride] : provide IC50
# output 29.2

# input Item COc1cc(-c2ccc(CN[C@H]3C[C@@H](OC)[C@@H](N(C)c4ncnc5sc(CC(F)(F)F)cc45)C3)cc2)nnc1OC [Example 127, Hydrochloride] : provide IC50
# output 1.6

# input Item COc1cc(-c2ccc(CN[C@H]3C[C@@H](O)[C@@H](N(C)c4ncnc5sc(CC(F)(F)F)cc45)C3)cc2)cnc1F.Cl [Example 68, hydrochloride] : provide IC50
# output 1.7

# input Item CNc1nc(N(C)[C@H]2C[C@@H](NCc3ccc(-c4cnn(S(C)(=O)=O)c4)cc3)C[C@H]2O)c2cc(CC(F)(F)F)sc2n1 [Example 62, hydrochloride] : provide IC50
# output 2

# input Item COc1nc(N(C)[C@H]2C[C@@H](NCc3ccc(-c4cnc(OC)c(OC)c4)cc3)C[C@H]2O)c2cc(CC(F)(F)F)sc2n1 [Example 81, hydrochloride] : provide IC50
# output 6.1

# input Item COc1cc(-c2cnc(OC)c(OC)c2)ccc1CN[C@H]1C[C@@H](O)[C@@H](N(C)c2ncnc3sc(CC(F)(F)F)cc23)C1 [Example 77, hydrochloride] : provide IC50
# output 10.4
